- System: mouse fibroblast cells (L929, CCL‐1)
- method-summary: Cytotoxicity on healthy cells, CCK8 cell viability
- Format: cell-based
- assay-setup: L929, 24 h, 62.5 μM
- Source text: We investigated the cytotoxic effects of acrylonitrile derivatives 2(a–c) on human lung carcinoma (A549, CCL‐185) cells purchased from American Culture Collection and human breast carcinoma (MCF‐7) cells purchased from Republic of Turkey Ministry of Agriculture and Forestry Şap Institute, (HUKUK, 00092502), In addition, mouse fibroblast cells (L929, CCL‐1) purchased from American Culture Collection were used to observe the effects of the compounds on healthy cells. […]
Reported decrease in cell viability values for the following compounds.
assay-readout: decrease in cell viability

INSERT INTO assay_data (compound, assay_readout, observed_value) VALUES
  ('COc1ccc(C=C(C#N)c2ccccc2)cc1 [2a]', 'decrease in cell viability', '19%'),
  ('COc1ccc(/C=C(\C#N)c2cc(C(F)(F)F)cc(C(F)(F)F)c2)cc1 [2c]', 'decrease in cell viability', '10%'),
  ('O=c1[nH]cc(F)c(=O)[nH]1 [5‐FU, 5‐Fluorouracil, reference compound]', 'decrease in cell viability', '45%'),
  ('COc1ccc(/C=C(\C#N)c2ccc(F)cc2)cc1 [2b]', 'decrease in cell viability', '44%');
